system: human DMD exon 50 GFP based reporter; assay: BioMol high throughput screen in Ex50-GFP reporter C2C12 myoblasts, with or without AON6; assay type: cell-based, mouse; conditions: Without AON6 screen; compound 10 uM; 48 h; normalized to DMSO carrier controls
Response field class: string, computed from recorded Fluorescence Plate 4 by ranges lower band (below 6), central band (6 to below 20), upper band (20 or more)

// below: answered compounds
N=C(NCc1ccc(Cl)c(Cl)c1)NC(=O)c1nc(Cl)c(N)nc1N = lower band
CCCCCCCC/C=C\CCCCCCCC(=O)NCCc1ccc(O)c(O)c1 = lower band
Nc1ncnc2c1c(I)cn2[C@@H]1O[C@H](CO)C(O)C1O (some centres unmarked) = central band
Cn1cc(C2=C(c3cn(CCCSC(=N)N)c4ccccc34)C(=O)NC2=O)c2ccccc21 = upper band

Consider now this further compound.
Query: State the class of the compound shown: "N#C/C(=C\c1ccc(O)c(O)c1)C(=O)Nc1ccccc1"
Response: central band

###

tested on: human DMD exon 50 GFP based reporter; experiment: BioMol high throughput screen in Ex50-GFP reporter C2C12 myoblasts, with or without AON6; format: cell-based, mouse; conditions: With AON6 screen; compound 10 uM; average of 3 replicate plates
value.kind: Average Fluorescence (n = 3)
Reply: number alone, nothing else.

Here is how some compounds turned out for Average Fluorescence (n = 3).
CCN(CC)CCNC(=O)c1ccc(N)cc1 [PROCAINAMIDE] = 18.09
NCCNS(=O)(=O)c1cccc2cnccc12 = 16.84

Query: Bench note: what Average Fluorescence (n = 3) did CC1CNCCN1S(=O)(=O)c1cccc2cnccc12 (stereo not drawn) show?
Response: 23.87

Query: Bench note: what Average Fluorescence (n = 3) did "N#C/C(=C\c1ccc(O)c(O)c1)C(=O)Nc1ccccc1" show?
Response: 23.33

Query: Bench note: what Average Fluorescence (n = 3) did "N#C/C(=C/c1ccc(O)c(O)c1)C(=O)NCc1ccccc1" show?
Response: 16.99

Query: Bench note: what Average Fluorescence (n = 3) did COc1ccc2c3c([nH]c2c1)C(C)=NCC3.Cl [HARMALINE HCl] show?
Response: 19.26

Query: Bench note: what Average Fluorescence (n = 3) did O=Cc1c2c(cc3c1=Nc1ccccc1-3)=Nc1ccccc1-2 [6-FORMYLINDOLO [3,2-b] CARBAZOLE] show?
Response: 30.90

Query: Bench note: what Average Fluorescence (n = 3) did "COc1cc(/C=C(\C#N)C(N)=O)cc(CSc2nc3ccccc3s2)c1O" show?
Response: 17.38

Query: Bench note: what Average Fluorescence (n = 3) did "N#CC(=C(N)Sc1ccccc1N)C(C#N)=C(N)Sc1ccccc1N" show?
Response: 23.39

Query: Bench note: what Average Fluorescence (n = 3) did "CC(n1cc(C[C@H](N)C(=O)O)c2ccccc21)n1cc(C[C@H](N)C(=O)O)c2ccccc21" show?
Response: 18.02

Query: Bench note: what Average Fluorescence (n = 3) did "N#C/C(=C\c1ccc(O)c(O)c1)C(N)=O" show?
Response: 17.80

Query: Bench note: what Average Fluorescence (n = 3) did CC(N/C(=N\C#N)Nc1ccncc1)C(C)(C)C (stereo not drawn) show?
Response: 18.13

###

# reported Fluorescence Plate 1; entries follow
test system: human DMD exon 50 GFP based reporter; assay: BioMol high throughput screen in Ex50-GFP reporter C2C12 myoblasts, with or without AON6; assay type: cell-based, mouse; details: Without AON6 screen; compound 10 uM; 48 h; normalized to DMSO carrier controls

Here is how some compounds turned out for Fluorescence Plate 1.
Nc1ncnc2c1c(I)cn2[C@@H]1O[C@H](CO)C(O)C1O (some centres unmarked) = -0.41
C[C@@]12C(=O)OC(=O)[C@]1(C)[C@H]1CC[C@@H]2O1 = 11.40
N#C/C(=C\c1ccc(O)c(O)c1)C(=O)Nc1ccccc1 = 5.92
COc1ccc2c3c([nH]c2c1)C(C)=NCC3.Cl [HARMALINE HCl] = 31.97
CCCCCCCC/C=C\CCCCCCCC(=O)NCCc1ccc(O)c(O)c1 = 2.78
COC[C@H]1OC(=O)c2coc3c2[C@@]1(C)C1=C(C3=O)[C@@H]2CCC(=O)[C@@]2(C)C[C@H]1OC(C)=O = 4.99
CC(C)(C)c1cc(/C=C(\C#N)C(N)=S)cc(C(C)(C)C)c1O = 1.23
Cn1cc(C2=C(c3cn(CCCSC(=N)N)c4ccccc34)C(=O)NC2=O)c2ccccc21 = 17.56

Query: // fetch human DMD exon 50 GFP based reporter Fluorescence Plate 1 for "COc1ccc2cc1Oc1ccc(cc1)C[C@H]1c3cc(c(OC)cc3CCN1C)Oc1c(OC)c(OC)cc3c1[C@H](C2)N(C)CC3"
Response: 3.15

Query: // fetch human DMD exon 50 GFP based reporter Fluorescence Plate 1 for CN(C)CCCn1cc(C2=C(c3c[nH]c4ccccc34)C(=O)NC2=O)c2ccccc21 [GF 109203X]
Response: 22.19

Query: // fetch human DMD exon 50 GFP based reporter Fluorescence Plate 1 for "N=C(NCc1ccc(Cl)c(Cl)c1)NC(=O)c1nc(Cl)c(N)nc1N"
Response: 22.19

###

Test system: human DMD exon 50 GFP based reporter
Assay: BioMol high throughput screen in Ex50-GFP reporter C2C12 myoblasts, with or without AON6
Type: cell-based, mouse
Settings: Without AON6 screen; compound 10 uM; 48 h; normalized to DMSO carrier controls
Text: Small molecule libraries were screened for exon skipping promoting activity in C2C12 myoblasts expressing a human DMD exon 50 GFP based reporter. […] In the reporter cells, successful skipping of DMD exon 50 creates in-frame GFP expression. Number of cells that were fluorescing was quantified using a high content cell imager in 384 well plate format. Fluorescence was normalized by subtracting the average fluorescence value of the carrier (DMSO) controls. […]
value.kind: Fluorescence Plate 4
Reply: number alone, nothing else.

COc1ccc2cc1Oc1ccc(cc1)C[C@H]1c3cc(c(OC)cc3CCN1C)Oc1c(OC)c(OC)cc3c1[C@H](C2)N(C)CC3 = 4.64

Query: // fetch human DMD exon 50 GFP based reporter Fluorescence Plate 4 for COc1ccc2c3c([nH]c2c1)C(C)=NCC3.Cl [HARMALINE HCl]
Response: 22.50

Query: // fetch human DMD exon 50 GFP based reporter Fluorescence Plate 4 for "COC[C@H]1OC(=O)c2coc3c2[C@@]1(C)C1=C(C3=O)[C@@H]2CCC(=O)[C@@]2(C)C[C@H]1OC(C)=O"
Response: 5.92

Query: // fetch human DMD exon 50 GFP based reporter Fluorescence Plate 4 for CN(C)CCCn1cc(C2=C(c3c[nH]c4ccccc34)C(=O)NC2=O)c2ccccc21 [GF 109203X]
Response: 66.78

Query: // fetch human DMD exon 50 GFP based reporter Fluorescence Plate 4 for "C[C@@]12C(=O)OC(=O)[C@]1(C)[C@H]1CC[C@@H]2O1"
Response: 5.55

Query: // fetch human DMD exon 50 GFP based reporter Fluorescence Plate 4 for "CC(C)(C)c1cc(/C=C(\C#N)C(N)=S)cc(C(C)(C)C)c1O"
Response: 6.94

Each recorded value in this set is attributed to patent US10188633B2.
